- tested_target: Atrial natriuretic peptide receptor 1 (Homo sapiens) (UniProt P16066)
- Sequence (P16066 whole entry, looked up): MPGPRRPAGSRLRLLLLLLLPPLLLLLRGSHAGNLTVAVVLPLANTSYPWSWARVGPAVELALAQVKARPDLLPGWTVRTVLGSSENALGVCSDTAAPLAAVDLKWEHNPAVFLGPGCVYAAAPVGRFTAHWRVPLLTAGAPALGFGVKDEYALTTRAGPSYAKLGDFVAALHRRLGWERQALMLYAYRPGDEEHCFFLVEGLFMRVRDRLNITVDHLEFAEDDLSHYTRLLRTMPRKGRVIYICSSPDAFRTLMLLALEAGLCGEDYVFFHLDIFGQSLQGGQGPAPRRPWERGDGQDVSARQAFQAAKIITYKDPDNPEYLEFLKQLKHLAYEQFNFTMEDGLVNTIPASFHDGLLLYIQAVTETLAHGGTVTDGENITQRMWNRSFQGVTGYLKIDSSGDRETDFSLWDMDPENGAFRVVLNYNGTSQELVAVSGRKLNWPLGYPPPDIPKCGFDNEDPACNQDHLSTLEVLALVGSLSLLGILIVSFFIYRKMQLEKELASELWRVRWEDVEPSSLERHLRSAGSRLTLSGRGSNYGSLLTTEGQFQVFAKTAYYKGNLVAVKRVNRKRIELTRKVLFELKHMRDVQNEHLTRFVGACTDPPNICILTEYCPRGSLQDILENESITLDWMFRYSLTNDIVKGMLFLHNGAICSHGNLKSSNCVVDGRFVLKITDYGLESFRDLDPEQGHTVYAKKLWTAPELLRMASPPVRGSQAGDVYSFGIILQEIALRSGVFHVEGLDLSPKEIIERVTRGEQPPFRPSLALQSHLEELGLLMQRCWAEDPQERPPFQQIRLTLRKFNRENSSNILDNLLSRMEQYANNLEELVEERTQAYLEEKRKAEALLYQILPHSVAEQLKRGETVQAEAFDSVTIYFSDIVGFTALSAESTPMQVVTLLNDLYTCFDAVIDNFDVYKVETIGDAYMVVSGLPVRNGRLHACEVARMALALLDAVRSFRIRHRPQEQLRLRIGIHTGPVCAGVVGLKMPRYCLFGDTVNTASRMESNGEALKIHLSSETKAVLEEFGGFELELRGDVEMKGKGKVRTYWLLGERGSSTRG
- experiment_description: Natriuretic polypeptide receptor (hNpr1) antagonism - Pilot screen (AID 1347049);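 further: HEK293 cells with hNpr1 and GloSensor cGMP luciferase stimulated by 0.1 nM hNppA; agonist-evoked cGMP luminescence read 20 min after hNppA addition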
- assay_conditions: hNpr1 cells, antagonist mode cGMP read-out; series mostly up to 57.5 µM
- Source text: […] 7. […] GloSensor baseline pre-read luminescence measured using CCD-based camera (Viewlux). […] 10. […] GloSensor post-hNppA luminescence measured using CCD-based camera (Viewlux). […] 1. […] Cells counted with Invitrogen Countess (30,000,000 - 50,000,000 cells/flask). […]
Records with an inconclusive call do not appear. Activity calls are given as the source filed them. The call rests on the fitted dose curve.
Just give me one of these, please: true (1) for active, false (0) for inactive

I'd appreciate the recorded outcome for NC(N)=NCCCCN=C(N)N from this test.
false (0)

Also CC(C)N(CCC(=O)c1ccc2ccccc2c1)Cc1ccccc1 ?
true (1)

What about COC(=O)C1=CO[C@@H](O)[C@@H]2C(CO)=CC[C@H]12 ?
false (0)

Also Nc1ncnc2n[nH]c(Nc3ccc(F)cc3)c12 ?
false (0)

Repeat for the following compound: Clc1ccc2c(c1)N=C(N1CCNCC1)c1ccccc1N2
false (0)

###

- experiment_description: Cell Viability - LYMP2-023 (AID 975);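 further: cells exposed to compound for 24 hours at 37 °C; nearly all actives have a fitted effect of over 55% in size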
- assay_conditions: LYMP2-023 lymphoblastoid cell viability; series mostly up to 92.2 µM
Results filed as inconclusive are left out. Active and inactive are the calls of the source. Calls come from the whole dose curve; as a rule, active = well fitted cell-killing curve with a large enough effect; inconclusive = small, poorly fitted or top-dose-only effect; inactive = flat fitted curve, though single readings scatter.
Choose one outcome from this list and give only that: active, inactive

These solved cases illustrate the format of a correct answer.
[
  {
    "compound": "Cc1ccc(O)cc1",
    "class_assignment": "inactive"
  },
  {
    "compound": "Nc1ccc(O)cc1",
    "class_assignment": "active"
  },
  {
    "compound": "C1=CC2C3C=CC(C3)C2C1 (stereo not drawn)",
    "class_assignment": "inactive"
  }
]

Identify the outcome logged in this assay for the compound shown: Oc1ccccc1
inactive

Entry to check: O=C(NO)c1ccccc1
inactive

Also check CC(C)(c1ccc(O)cc1)c1ccc(O)cc1
inactive

Ok, now CCCC(=O)c1cc(O)c(O)cc1O
inactive

Now consider CCCCCCCCCCCCCCCC[n+]1ccccc1 and answer again.
active

###

- experiment_description: qHTS of pediatric cancer cell lines to identify multiple opportunities for drug repurposing: Primary screen for LAN-5 cells (AID 1347100);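 further: plate controls were DMSO neutral control for no effect and bortezomib positive control for full effect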
- assay_conditions: LAN-5 neuroblastoma viability, CellTiter-Glo luminescence, 48 h; series mostly up to 46 µM
Inconclusive results are not listed. Active and inactive are the calls of the source. Calls follow the shape of the dose curve; as a rule, active = well fitted cell-killing curve with a large enough effect; inconclusive = small, poorly fitted or top-dose-only effect; inactive = no such curve, though single readings can be large or run the other way.
// one of active, inactive, no free text

[
  {
    "compound": "COc1cc(NS(=O)(=O)c2ccc(N)cc2)nc(C)n1",
    "class_assignment": "inactive"
  }
]

Which result was noted for this compound in the test: CC1(C)S[C@@H]2[C@H](NC(=O)C(c3ccccc3)S(=O)(=O)O)C(=O)N2[C@H]1C(=O)O (stereo not given in full)
inactive

// repeat for OC1(c2ccc(Cl)cc2)CCNCC1 and report
inactive

###

- experiment_description: P-glycoprotein substrates identified in KB-8-5-11 adenocarcinoma cell line, qHTS therapeutic library screen (AID 1346987); further: nearly all actives have a fitted effect of over 65% in size
- assay_conditions: KB-8-5-11 (P-gp overexpressing) viability, CellTiter-Glo, 72 h; series mostly up to 44.5 µM
Results filed as inconclusive are left out. Calls of active or inactive are those of the source. Calls follow the shape of the dose curve; as a rule, active = well fitted inhibition curve with a large enough effect; inconclusive = small, poorly fitted or top-dose-only effect; inactive = flat fitted curve, though single readings scatter.
Bench note: report the call from class 1 for active, class 0 for inactive

Example cases with answers are listed next.
[
  {
    "molecule": "CCN1CCN(C(=O)N[C@@H](C(=O)N[C@@H]2C(=O)N3[C@@H]2SC(C)(C)[C@H]3C(=O)O)c2ccccc2)C(=O)C1=O",
    "class_assignment": "class 0"
  },
  {
    "molecule": "OC[C@]1(O)OC[C@@H](O)[C@H](O)[C@@H]1O",
    "class_assignment": "class 0"
  },
  {
    "molecule": "O=C(Nc1ccc(Cl)cc1)Nc1ccc(Cl)c(Cl)c1",
    "class_assignment": "class 1"
  },
  {
    "molecule": "Nc1nnnn1-c1ccccc1",
    "class_assignment": "class 0"
  },
  {
    "molecule": "C[C@@]12CCC[C@H]1[C@@H]1CC[C@H]3C[C@@H](O)CC[C@]3(C)[C@H]1CC2",
    "class_assignment": "class 0"
  }
]

// outcome(item) with item = CC1c2ccccc2CN1NC(=O)c1ccc(Cl)c(S(N)(=O)=O)c1 (stereo not drawn)
class 0

Can you check CC(C)(C)C(=O)OCOC(=O)C1N2C(=O)CC2S(=O)(=O)C1(C)C (stereo not drawn) next?
class 0

Please answer likewise for CC1CC(=O)NN=C1c1ccc(NCC(C)(C)NCC(O)COc2cc(Cl)ccc2C#N)cc1 (stereo not drawn)
class 0

Also O=C1NC2CCCCN2C12CCN(CCCN1c3ccccc3CCc3ccc(Cl)cc31)CC2 (stereo not drawn) ?
class 1

Query CCCCCOc1ccc(C2SC(=O)NC2=O)cc1OCC (stereo not drawn) next
class 0

Likewise for COc1cc(C(=O)NC2CCCNC2)cc(OC)c1OC (stereo not drawn) ?
class 0

Please do the same for CC(=O)Nc1ccn(C2COC(COC(=O)c3ccccc3)O2)c(=O)n1 (stereo not drawn) as well.
class 0
